molecular target: UniProtKB P0DTD1; test: biochemical; settings: IC50, 5 Min Incubation, CIY substrate, 5 min preincubation with the enzyme
PROPERTY_MEASURED: IC50

SAMPLE_SMILES: COC(=O)c1cc2c(n1S(=O)(=O)c1ccc(C)cc1)C(=O)C(=O)c1[nH]cc(C(=O)OCc3ccccc3)c1-2
SYSTEM_UNDER_TEST: UniProtKB P0DTD1
PROPERTY_MEASURED: IC50
RESULT: 16.8 µM

* * *

experiment: Cellular cytotoxicity (CCK-8 / WST assay); type: cell-based; conditions: African green monkey, Vero CCL81 cells; 48 h treatment

SAMPLE_SMILES: COC(=O)c1cc2c(n1S(=O)(=O)c1ccc(C)cc1)C(=O)C(=O)c1[nH]cc(C(=O)OCc3ccccc3)c1-2
UNIT_ABBREVIATION: µM
CC50 at 48 h: 18.6
